The reported measurements were obtained from PubChem BioAssay (NCI).

Tested on: U251 CNS
Can you answer with just one of these options? active, inactive

Solved entries:
[
  {
    "Molecule": "N#CSCC1CC(O)(c2ccccc2)CC(c2ccc(Cl)cc2)O1 (stereo not given)",
    "Label class": "inactive"
  },
  {
    "Molecule": "CCCCCCCCc1ccc(CCC(N)(CO)CO)cc1",
    "Label class": "inactive"
  },
  {
    "Molecule": "COc1ccc(Nc2ncc(-c3ccccc3)o2)cc1OC",
    "Label class": "inactive"
  },
  {
    "Molecule": "CCCC(=O)O[C@]1(C)CC[C@@H]2[C@H]3[C@@H]1[C@@H]1C/C(C)=C\\CC[C@](C)(OC(=O)[C@@H]2C)[C@H]3O1",
    "Label class": "inactive"
  },
  {
    "Molecule": "N=C1N=C(N)S/C1=C\\c1ccc2ncccc2c1",
    "Label class": "inactive"
  }
]

Q. Hello, I am checking results. What call was entered for "Clc1ccc(N/N=C(\c2ccccc2)c2ccccn2)nc1" ?
A. active
